Assay: Human HepG2 cell viability assay in 384 well format
Type: toxicity, cell-based
Set-up: dose 125 nL, time 70.5 hour; concentration not given beside the values
Settings: HepG2 cells, read-out: Inhibition
Below, each of the molecules is paired with its reported cytotoxicity at 70.5 h value.
Your answer should be a plain number; it is taken to be in %.

Consider the following illustrative entries.
Cc1ccccc1N1CCN(C(=O)Cn2ccnc2)CC1=O	14.2
CC(NC(=O)C1CCN(S(N)(=O)=O)CC1)c1cccc(OC(F)F)c1 (stereo unspecified)	-1.7
Cc1cnn(CC(=O)N2CCC3(CCC(=O)N(CCCO)C3)CC2)c1	0.675
CCOCC1CN(CC2CC2)Cc2nn(C)cc21 (stereo unspecified)	-4.39
Cc1nc(C)n(CC2CCCCN2CC(=O)Nc2ccncc2)n1 (stereo unspecified)	16.8
Clc1ccc(N2CCN(CCCN3CCCCC3)CC2)nc1	7.35
Cc1cccc(N2N=C(C(=O)NC(C)Cc3ccco3)CCC2=O)c1 (stereo unspecified)	-13.7
c1cc2c(cc1Cn1cc(C3CCCNC3)nn1)CCCO2 (stereo unspecified)	-15.2

What does the data say about its cytotoxicity at 70.5 h? Entry: O=C(Nc1ccccc1Cl)N1CCN(CC2CC2)[C@@H]2CS(=O)(=O)C[C@@H]21 16.8

What does the data say about its cytotoxicity at 70.5 h? Entry: Cc1nnc(CN(C)S(=O)(=O)c2ccc(Br)cc2Cl)n1C -8.93

What does the data say about its cytotoxicity at 70.5 h? Entry: Cc1cc(CNC(=O)C2CCCN2C(=O)OC(C)(C)C)no1 (stereo unspecified) -0.379
